Target System: GlcNAc(a1-4)Gal(b1-4)GlcNAc(b1-3)Gal(b1-4)GlcNAc(b1-3)Gal(b1-4)GlcNAc
Protocol: glycan array binding signal (z-score within array); higher = stronger binding
Cond: glycan notation: IUPAC condensed, linker removed
About 410 targets per protein were measured; listed, in parts, are those with the strongest signals and a random draw of the rest.
Would you mind labelling by glycan array binding signal (z-score)? At or over -0.06 is yes (1), under is no (0).

Illustrative cases are given below, each with its answer.
Binder: SSR1 (Sclerotium rolfsii), A0A0M3KL30 (protein) TYKITVRVYQTNPDAFFHPVEKTVWKYANGGTWTITDDQHVLTMGGSGTSGTLRFHADNGESFTATFGVHNYKRWCDIVTNLAADETGMVINQQYYSQKNREEARERQLSNYQVKNAKGRNFQIVYTEAEGNDLHANLIIG
Qualitative Label: yes (1)
//
Binder: BSR4 (Toxoplasma gondii), Q95NL6 (protein) MVMMGSMQQRRGGLRSNARQLLAVCMSGVVFFSSGQAVADNLLEGLLHRTLQQQVEVTSRLTVAGSDAKCDFFTPATQDSPPVSGSLTLSKGRMTATFECSATQALSISTIPTNIEQNVCDPKKTTNGTVCQFGANGSAGTEVTLKDLLETDRIVNWKVNEQREESNKSQKWSLELHNEDLPLTDKAFVVGCQATSAARGTESGKTAACKLTVNVEARASSLAENNVVTCAYGKGSNPNPVEVEMSTEKNTLTINCGSDGSLQPTTYAEEYCVADSKDVNRCSTTRFVEIFPKFLKSWWVTETQKRTSATLTIPQTDLPEADQQFLVGCVPKKTAPEDPKKDKESGTETGAPTSCTVLVTVKAASSASHASPTVQILAAASSAAA
Qualitative Label: no (0)
//
Binder: SAG1 (Toxoplasma gondii), P13664 (protein) MSVSLHHFIISSGFLTSMFPKAVRRAVTAGVFAAPTLMSFLRCGVMASDPPLVANQVVTCPDKKSTAAVILTPTENHFTLKCPKTALTEPPTLAYSPNRQICPAGTTSSCTSKAVTLSSLIPEAEDSWWTGDSASLDTAGIKLTVPIEKFPVTTQTFVVGCIKGDDAQSCMVTVTVQARASSVVNNVARCSYGADSTLGPVKLSAEGPTTMTLVCGKDGVKVPQDNNQYCSGTTLTGCNEKSFKDILPKLTENPWQGNASSDKGATLTIKKEAFPAESKSVIIGCTGGSPEKHHCTVKLEFAGAAGSAKSAAGTASHVSIFAMVIGLIGSIAACVA
Qualitative Label: yes (1)

stdin: Identify whether the reported glycan array binding signal (z-score) of the following binder is -0.06 or greater: Epa9 (Candida glabrata), CAGL0A01386g (protein) MGSSHHHHHHSSGLVPRGSHMDITPFAHYPRPEGCSSPPNAVSVGLHMDLYNYPYLYVKNPRTGFTNDTDSDADGETDGDSAGGIEGRAGQCWNPEYQDPNFPRYGYKKYGSFGSSDHVNGKISWDHNEFKEGCKPIMARLPTAYNYPAKITFSNFTMVLSGYFKPKSTGLYKFEIHADDFILFNFGSKNAFECCNREESIDNFGPYVAYAMWPNEADQELEVYLFEDSYYPIRLFYNNRDYHSKFMVGFYPPNTEEITYDFDGYLYMLDDTGNECKDSIRYKTVCDD
stdout: no (0)
